# tested-system: human c-Met (human, UniProt P08581 25-1390)
# Sequence (P08581 25-1390): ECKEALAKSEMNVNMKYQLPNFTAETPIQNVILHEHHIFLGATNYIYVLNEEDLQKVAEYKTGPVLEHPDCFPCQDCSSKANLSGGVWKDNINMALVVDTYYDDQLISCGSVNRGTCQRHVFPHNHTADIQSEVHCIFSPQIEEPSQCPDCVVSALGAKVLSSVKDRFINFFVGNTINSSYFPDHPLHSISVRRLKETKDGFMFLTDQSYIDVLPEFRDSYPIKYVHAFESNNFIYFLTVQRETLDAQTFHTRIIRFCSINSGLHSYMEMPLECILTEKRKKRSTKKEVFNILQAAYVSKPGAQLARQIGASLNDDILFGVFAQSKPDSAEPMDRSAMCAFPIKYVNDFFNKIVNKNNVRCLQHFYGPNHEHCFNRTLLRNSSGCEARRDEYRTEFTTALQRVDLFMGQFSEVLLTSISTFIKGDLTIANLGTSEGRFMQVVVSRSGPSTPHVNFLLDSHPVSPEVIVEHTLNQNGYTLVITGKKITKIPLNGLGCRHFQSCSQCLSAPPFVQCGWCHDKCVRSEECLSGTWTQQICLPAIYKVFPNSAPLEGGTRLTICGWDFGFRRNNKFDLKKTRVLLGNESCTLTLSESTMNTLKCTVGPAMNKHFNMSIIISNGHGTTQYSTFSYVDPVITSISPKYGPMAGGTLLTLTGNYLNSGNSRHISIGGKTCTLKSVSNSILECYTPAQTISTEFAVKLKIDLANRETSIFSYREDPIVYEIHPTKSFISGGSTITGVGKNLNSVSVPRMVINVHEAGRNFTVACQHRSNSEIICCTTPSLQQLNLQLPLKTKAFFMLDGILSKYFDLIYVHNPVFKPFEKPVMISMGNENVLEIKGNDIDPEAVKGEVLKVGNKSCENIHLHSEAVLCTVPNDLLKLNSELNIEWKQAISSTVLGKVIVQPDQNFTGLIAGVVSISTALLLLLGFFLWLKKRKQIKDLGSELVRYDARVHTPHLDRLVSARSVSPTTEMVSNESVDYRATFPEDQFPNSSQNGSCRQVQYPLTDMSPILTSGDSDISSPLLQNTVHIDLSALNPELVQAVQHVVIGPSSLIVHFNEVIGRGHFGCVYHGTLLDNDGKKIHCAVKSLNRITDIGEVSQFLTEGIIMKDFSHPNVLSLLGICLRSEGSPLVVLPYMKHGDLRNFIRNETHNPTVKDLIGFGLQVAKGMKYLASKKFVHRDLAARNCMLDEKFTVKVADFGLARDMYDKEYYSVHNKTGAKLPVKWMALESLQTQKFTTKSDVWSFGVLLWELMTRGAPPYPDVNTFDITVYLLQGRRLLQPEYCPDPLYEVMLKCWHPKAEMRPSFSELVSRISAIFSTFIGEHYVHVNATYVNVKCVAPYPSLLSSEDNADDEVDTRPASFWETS
# experiment: cell-based or functional assay
endpoint: AVG CPM, 3H-thymidine incorporation in MKN45 cells, Ab 0.0 ng/mL (no antibody) (CPM)
Give the number; CPM is assumed, so skip it.

Entry D11-8B8 (antibody, human IgG2, kappa, V domains shown, Human engineered IgG2 kappa c-Met antibody; also called Mab D11-8B8; D11-8B8 IgG2) VH: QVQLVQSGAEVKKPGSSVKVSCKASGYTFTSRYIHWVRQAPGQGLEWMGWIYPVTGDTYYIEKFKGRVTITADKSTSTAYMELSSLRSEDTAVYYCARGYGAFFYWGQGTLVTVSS VL: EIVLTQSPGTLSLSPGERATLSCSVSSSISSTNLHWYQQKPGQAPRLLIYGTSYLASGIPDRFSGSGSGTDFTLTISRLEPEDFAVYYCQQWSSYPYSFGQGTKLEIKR has what AVG CPM, 3H-thymidine incorporation in MKN45 cells, Ab 0.0 ng/mL (no antibody)?
50400
